assayedSystem: F508delCFTR (Homo sapiens, UniProt P13569, DEL508-508)
Construct: expressed in transfected cells; host or cells: CFBE41o- human lung-derived epithelial cells (CFBE4lo-F508delCFTR-HRP), doxycycline-inducible
Sequence (P13569 with tags, fused parts or gaps DEL508-508): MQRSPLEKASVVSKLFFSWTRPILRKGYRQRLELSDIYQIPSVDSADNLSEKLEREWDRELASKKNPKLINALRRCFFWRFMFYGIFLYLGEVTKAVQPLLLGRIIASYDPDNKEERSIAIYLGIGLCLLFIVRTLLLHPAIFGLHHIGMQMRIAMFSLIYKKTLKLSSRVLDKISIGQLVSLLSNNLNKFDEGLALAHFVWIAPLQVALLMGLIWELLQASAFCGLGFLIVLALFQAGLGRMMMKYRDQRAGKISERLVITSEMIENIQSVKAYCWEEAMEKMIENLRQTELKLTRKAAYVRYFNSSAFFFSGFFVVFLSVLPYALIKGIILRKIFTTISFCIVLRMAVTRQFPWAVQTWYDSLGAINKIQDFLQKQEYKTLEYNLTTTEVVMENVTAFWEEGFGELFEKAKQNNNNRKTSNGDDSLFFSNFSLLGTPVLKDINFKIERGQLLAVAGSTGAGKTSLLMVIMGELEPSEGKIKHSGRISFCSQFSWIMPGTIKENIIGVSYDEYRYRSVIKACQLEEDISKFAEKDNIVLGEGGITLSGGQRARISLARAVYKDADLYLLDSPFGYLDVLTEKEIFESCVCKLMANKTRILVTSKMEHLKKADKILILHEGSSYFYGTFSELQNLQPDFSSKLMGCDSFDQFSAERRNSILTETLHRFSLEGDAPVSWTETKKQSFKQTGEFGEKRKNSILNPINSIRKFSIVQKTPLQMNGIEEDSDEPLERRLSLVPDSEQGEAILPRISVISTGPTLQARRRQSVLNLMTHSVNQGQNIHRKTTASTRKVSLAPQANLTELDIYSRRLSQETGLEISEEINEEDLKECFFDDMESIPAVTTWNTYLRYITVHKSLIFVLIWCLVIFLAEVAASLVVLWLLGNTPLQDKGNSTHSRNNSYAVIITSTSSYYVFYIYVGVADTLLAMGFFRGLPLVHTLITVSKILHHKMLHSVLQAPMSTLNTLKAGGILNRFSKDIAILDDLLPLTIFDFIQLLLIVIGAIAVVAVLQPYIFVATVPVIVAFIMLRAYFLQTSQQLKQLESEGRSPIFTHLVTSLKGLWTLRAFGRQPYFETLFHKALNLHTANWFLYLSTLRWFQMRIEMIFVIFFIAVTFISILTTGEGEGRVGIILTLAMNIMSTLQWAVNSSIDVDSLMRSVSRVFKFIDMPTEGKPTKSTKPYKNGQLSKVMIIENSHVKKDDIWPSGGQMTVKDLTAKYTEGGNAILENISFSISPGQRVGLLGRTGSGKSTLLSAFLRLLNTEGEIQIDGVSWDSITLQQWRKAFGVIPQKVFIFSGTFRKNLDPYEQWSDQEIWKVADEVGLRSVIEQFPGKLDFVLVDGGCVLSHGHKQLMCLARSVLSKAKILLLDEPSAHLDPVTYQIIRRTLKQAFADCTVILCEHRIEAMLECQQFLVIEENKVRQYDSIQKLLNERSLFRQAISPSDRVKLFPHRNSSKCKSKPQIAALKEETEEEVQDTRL
assayComment: Cell Surface Expression-Horse Radish Peroxidase (CSE-HRP) Assay
Assay type: cell-based
reportedConditions: with co-corrector (2 μM of 3-[(2R,4R)-4-({[1-(2,2-difluoro-1,3-benzodioxol-5-yl)cyclopropyl]carbonyl}amino)-7-methoxy-3,4-dihydro-2H-chromen-2-yl]benzoic acid); read-out: EC50 (with co-corrector)
observable: EC50

Below are worked cases with known answers.
# compound, val
rows = [
    ("COc1ncc(C2CCC2)cc1CN[C@H]1[C@H](C(C)(C)C)[C@@H](C(=O)O)N(C(=O)C2CCCCO2)[C@H]1c1cccnc1N(C)C (some centres unmarked) [II-491]", "1 to 10 µM"),
    ("COc1cc(C(F)(F)F)ccc1CN[C@@H]1[C@@H](C(C)(C)C)[C@H](C(=O)O)N(C(=O)[C@@H](OC)c2ccccc2)[C@@H]1c1ccccc1 [III-101]", "1 to 10 µM"),
    ("COc1ccc(C(C)(C)C)cc1CN[C@H]1[C@H](C(C)(C)C)[C@@H](C(=O)O)N(C(=O)C(OC)C2CCCCC2)[C@H]1c1ccccc1 (some centres unmarked) [Example I-160]", "< 1 µM"),
    ("COc1ccc(C(C)(C)C)cc1CN[C@H]1[C@H](C(C)(C)C)[C@@H](C(=O)O)N(C(=O)[C@@H]2[C@H](C(F)(F)F)[C@@H]3CC[C@H]2O3)[C@H]1c1cccnc1N(C)C (relative stereo) [II-473]", "< 1 µM"),
]

**Q:** Name the reported EC50 value associated with the compound CC(C)(C)[C@@H]1[C@@H](NCc2cc(C(F)(F)F)cnc2OCCO)[C@@H](c2ccccc2)N(C(=O)C2CCCCC2)[C@H]1C(=O)O (racemic) [III-87]
**A:** 1 to 10 µM

* * *

assayedSystem: F508delCFTR (Homo sapiens, UniProt P13569, DEL508-508)
Construct: expressed in transfected cells; host or cells: CFBE41o- human lung-derived epithelial cells (CFBE4lo-F508delCFTR-HRP), doxycycline-inducible
assayComment: Cell Surface Expression-Horse Radish Peroxidase (CSE-HRP) Assay
Assay type: cell-based
reportedConditions: with co-corrector (2 μM of 3-[(2R,4R)-4-({[1-(2,2-difluoro-1,3-benzodioxol-5-yl)cyclopropyl]carbonyl}amino)-7-methoxy-3,4-dihydro-2H-chromen-2-yl]benzoic acid); read-out: EC50 (with co-corrector)
observable: EC50

# molecule, assayedSystem, EC50
records = [
    ("COc1ccc(C(C)(C)C)cc1CN[C@H]1[C@H](C(C)(C)C)[C@@H](C(=O)O)N(C(=O)[C@@H]2CCCCO2)[C@H]1c1cccnc1OC", "F508delCFTR (Homo sapiens, UniProt P13569, DEL508-508)", "1 to 10 µM"),
    ("COc1ccc(C2(C(F)(F)F)CC2)cc1CN[C@H]1[C@H](C(C)(C)C)[C@@H](C(=O)O)N(C(=O)[C@@H]2CCCCO2)[C@H]1c1cccnc1N(C)C", "F508delCFTR (Homo sapiens, UniProt P13569, DEL508-508)", "1 to 10 µM"),
]

Consider the record given below.
**Q:** Name the reported EC50 value associated with the compound COc1cc2c(cc1CN[C@H]1[C@H](C(C)(C)C)[C@@H](C(=O)O)N(C(=O)OC(C)C)[C@H]1c1ccccc1C)CCC2
**A:** 1 to 10 µM

* * *

The entries below come with measured pEC50 values attached.
assayedSystem: F508delCFTR (Homo sapiens, UniProt P13569, DEL508-508)
Construct: expressed in transfected cells; host or cells: CFBE41o- human lung-derived epithelial cells (CFBE4lo-F508delCFTR-HRP), doxycycline-inducible
assayComment: Cell Surface Expression-Horse Radish Peroxidase (CSE-HRP) Assay
Format: cell-based
reportedConditions: with co-corrector (2 μM of 3-[(2R,4R)-4-({[1-(2,2-difluoro-1,3-benzodioxol-5-yl)cyclopropyl]carbonyl}amino)-7-methoxy-3,4-dihydro-2H-chromen-2-yl]benzoic acid); read-out: EC50 (with co-corrector)
pEC50: −log10 of the molar value.

# molecule, pEC50
rows = [
    ("COc1ncc(C2CCC2)cc1CN[C@H]1[C@H](C(C)(C)C)[C@@H](C(=O)O)N(C(=O)C2COc3ccccc3O2)[C@H]1c1ccccc1 (relative stereo) [Example I-205]", "5.00 to 6.00"),
]

**Q:** Name the reported pEC50 value associated with the molecule CN(C)c1ncc(C(F)(F)F)cc1CN[C@@H]1[C@@H](C(C)(C)C)[C@H](C(=O)O)N(C(=O)C2CCCCC2)[C@@H]1c1ccccc1 (racemic) [III-36]
**A:** 5.00 to 6.00

**Q:** Name the reported pEC50 value associated with the molecule COc1ccc2c(c1)CCC2C(=O)N1[C@H](C(=O)O)[C@@H](C(C)(C)C)[C@H](NCc2cc(C(C)(C)C)ccc2OC)[C@@H]1c1ccccc1 (stereo partly drawn) [II-365]
**A:** > 6.00

* * *

assayedSystem: F508delCFTR (Homo sapiens, UniProt P13569, DEL508-508)
Construct: expressed in transfected cells; host or cells: CFBE41o- human lung-derived epithelial cells (CFBE4lo-F508delCFTR-HRP), doxycycline-inducible
assayComment: Cell Surface Expression-Horse Radish Peroxidase (CSE-HRP) Assay;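 on Maximum % activity (with co-corrector): co-corrector and positive control are both the same reference corrector at 2 µM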
Assay type: cell-based
reportedConditions: with co-corrector (2 μM); maximum at any tested concentration, normalized to on-plate positive control
observable: Maximum % activity (with co-corrector)

# compound, val
rows = [
    ("COc1ccc(C(C)(C)C)cc1CN[C@H]1[C@H](C(C)(C)C)[C@@H](C(=O)O)N(C(=O)c2ccc(OC3CCCCC3)cc2)[C@H]1c1cccnc1N(C)C", "+++ (≥350)"),
    ("COc1ccc(C(C)(C)C)cc1CN[C@H]1[C@H](C(C)(C)C)[C@@H](C(=O)O)N(C(=O)C2CCCC(F)(F)C2)[C@H]1c1cccnc1N(C)C (single isomer, unassigned) [Example 42]", "+++ (≥350)"),
    ("COc1ccc(C(C)(C)C)cc1CN[C@H]1[C@H](C(C)(C)C)[C@@H](C(=O)O)N(C(=O)C(OC)c2ccc(F)c(F)c2)[C@H]1c1ccccc1 (relative stereo)", "+++ (≥350)"),
    ("COc1ncc(C(F)(F)F)cc1CN[C@H]1[C@H](C(C)(C)C)[C@@H](C(=O)O)N(C(=O)OC(C)C)[C@H]1c1ccccc1C(C)C", "+++ (≥350)"),
    ("CCCC1(O)CCC(C(=O)N2C(C(=O)O)C(C(C)(C)C)C(NCc3cc(C(C)(C)C)ccc3OC)C2c2ccccc2)CC1 (centres unmarked)", "+++ (≥350)"),
    ("COc1ccc(C(C)(C)C#N)cc1CN[C@H]1[C@H](C(C)(C)C)[C@@H](C(=O)O)N(C(=O)C2CCCCC2)[C@H]1c1ccccc1", "+++ (≥350)"),
    ("COc1cc(C(F)(F)F)ccc1CN[C@H]1[C@H](C(C)(C)C)[C@@H](C(=O)O)N(C(=O)C2CCCCC2)[C@H]1c1cccnc1N(C)C", "+++ (≥350)"),
    ("COc1cc(C(F)(F)F)ccc1CN[C@H]1[C@H](C(C)(C)C)[C@@H](C(=O)O)N(C(=O)c2cccnc2)[C@H]1c1ccccc1", "++ (≥150 and <350)"),
]

**Q:** Name the reported Maximum % activity (with co-corrector) value associated with the compound COc1ccc(C(C)(C)C)cc1CN[C@H]1[C@H](C(C)(C)C)[C@@H](C(=O)O)N(C(=O)[C@H]2COc3ccccc3O2)[C@H]1c1ccccc1
**A:** +++ (≥350)

**Q:** Name the reported Maximum % activity (with co-corrector) value associated with the compound COc1ncc(C(F)(F)F)cc1CN[C@H]1[C@H](C(C)(C)C)[C@@H](C(=O)O)N(C(=O)OC(C)C)[C@H]1c1ccccc1C1CC1
**A:** +++ (≥350)

**Q:** Name the reported Maximum % activity (with co-corrector) value associated with the compound COc1cc2c(cc1CN[C@H]1[C@H](C(C)(C)C)[C@@H](C(=O)O)N(C(=O)OC(C)C)[C@H]1c1ccccc1C)CCC2
**A:** +++ (≥350)

**Q:** Name the reported Maximum % activity (with co-corrector) value associated with the compound CCc1ccccc1[C@H]1[C@@H](NCc2cc(C3CCC3)cnc2OC)[C@H](C(C)(C)C)[C@@H](C(=O)O)N1C(=O)[C@@H]1CCCO1
**A:** +++ (≥350)

**Q:** Name the reported Maximum % activity (with co-corrector) value associated with the compound COc1ccc(C(C)(C)C)cc1CN[C@H]1[C@H](C(C)(C)C)[C@@H](C(=O)O)N(C(=O)[C@H]2CCCC(F)(F)C2)[C@H]1c1ccccc1
**A:** +++ (≥350)

**Q:** Name the reported Maximum % activity (with co-corrector) value associated with the compound CC(C)(C)[C@H]1[C@H](NCc2ccc3c(c2)CCCO3)[C@H](c2ccccc2)N(C(=O)C2CCCCC2)[C@@H]1C(=O)O
**A:** ++ (≥150 and <350)

**Q:** Name the reported Maximum % activity (with co-corrector) value associated with the compound COc1ccc(C(F)(F)F)cc1CN[C@H]1[C@H](C(C)(C)C)[C@@H](C(=O)O)N(C(=O)C2CC3CC3C2)[C@H]1c1ccccc1 (some centres unmarked)
**A:** +++ (≥350)

**Q:** Name the reported Maximum % activity (with co-corrector) value associated with the compound COc1ccc(C(C)(C)C)cc1CN[C@H]1[C@H](C(C)(C)C)[C@@H](C(=O)O)N(C(=O)Cc2ccc(F)cc2F)[C@H]1c1ccccc1
**A:** +++ (≥350)

**Q:** Name the reported Maximum % activity (with co-corrector) value associated with the compound Cc1cc(C(F)(F)F)cc(N[C@@H]2[C@@H](C3CC3)[C@H](C(=O)O)N(C(=O)C3CCCCC3)[C@@H]2c2ccccc2)n1 (racemic)
**A:** ++ (≥150 and <350)

Source of measurements: patent US20180099931A1
